Data credit: the nanobody polyreactivity screen of Harvey et al. (2022)

ASSAY_DETAILS: yeast display, Sf9 membrane polyspecificity reagent, FACS + sequencing; frameworks hold sequencing errors
MEASURED_ATTRIBUTE: polyreactivity (PSR sort gate)

PRIMARY_SEQUENCE	MEASURED_ATTRIBUTE	RECORDED_VALUE
QVQLVESGGGIVQAGGSLRLSCAASGGIFWRYAMGWYRQAPGKERELVAAISSRGGSTYYADSVKGRFTISRDNAKNTVYLQMNSLKPEDTAVYYCAADRRYAESGYYWGHGTQVTVSS	polyreactivity (PSR sort gate)	high polyreactivity
QVQRVESGGGLVQAGGSLRLSCAASGSNFDKNPMGWYRQAPGKEREVVAAISRSGGSTNYADSVKGRFTISRDNAKTTDFLLMYSVKPEDTAVYYFAAQSRYWTYDSWGQGTQVNVSS	polyreactivity (PSR sort gate)	high polyreactivity
QVQLQESGGGLVQAGGSLRLSCAASGSIIEELDMAWYRQAPGKEREFVAAIGTGSTTYYADSVKGRFTSSRDNAKNTVYLQMNSLKPEDTAVYYCAVTYSVYLPFRYWGQGTQVTVSS	polyreactivity (PSR sort gate)	high polyreactivity
QVQLVESGGGLVQAGGSLRLSCAASGRTFTKYAMGWYRQAPGKERELVAAISNSGGSTFYADSVKGRFTISRDNAKNTVYLQMNSLKPEDTAVYYCAVDLGDTQYVPFDYWGQGTQVTVSS	polyreactivity (PSR sort gate)	low polyreactivity
QVQLVESGGGLVQAGGSLRLSCAASGSTFTANAMGWYRQAPWKERELVAAITNSDGSTYYADSVKGRFTISRDNAKNTVYLQMNSLKPEDTAVYYCAKDYYACYWEMDYWGQGTQVTVSS	polyreactivity (PSR sort gate)	low polyreactivity

# input Entry under review: QVQLVESGGGLVQAGGSLRLICAASGRIFLWNAMGWYRQAPGKEREFVATISWNDAISYYADSVKGRFTISRDNAKNSVYLQMNSLKPEDTAVYYCNVDPKIVLSFGYDYWGQGTQVTVSS . Reported polyreactivity (PSR sort gate)?
# output low polyreactivity

# input Need polyreactivity (PSR sort gate), item QDQLVESGGGLVQAGGSLRLSCAASGLTFRLYAMGSYRQAPAKEREWVAAITSSSGSTYYADSVKGRFTISRDTANYTVYLQMNSLKPEDTAVYYCNAVRYTTQTPNVDYGYWGLGTQVTVSS
# output high polyreactivity

* * *

ASSAY_DETAILS: yeast display, Sf9 membrane polyspecificity reagent, FACS + sequencing; frameworks hold sequencing errors
MEASURED_ATTRIBUTE: polyreactivity (PSR sort gate)

PRIMARY_SEQUENCE	polyreactivity (PSR sort gate)
QVQLVESGGGLVQAGGSLRLSCAASGSIFGFNAMGWYRQAPGKERELVAAISSGSTYYADSVKGRFTISRDNAKNTVYLQMNRLKPEDTAVYYCAATTGYSWYGYWGQGTQVTVSS	low polyreactivity
QVQLVESGGGLVQAGGILRLSCAASGRTFGIYVMGWYRQAPGKERELVAAIRSGGTTNYADTVKGRFTISRDNAKNTVYLKMNSLKPEDTAVYYCAASSRRSWTYDYWGQGTQVTVSS	high polyreactivity
QVQLVESGGGLVQAGGSLSFSCAAPGSIFPRYAMGWYRQAPGKERELVAAISRSGGSTYYADSVKGRFTISRDNAKNSVYLQMNSLKPEDTAVYYCATDKVSHRRYDYWGQGTQVTVSS	high polyreactivity
QVQLVESGGGLVQAGGSLRLSCAASGFTFVSYAMGWYRQAPGKERELVAAISSRVGSTYYADSVKGRFTISRDNAKNTVYLQMNSLKPEDTAVYYCAASFTDRVTLDYFRSYAFEYWGQGTQVTVSS	low polyreactivity

Here's the next entry for you.
# input Requested field: polyreactivity (PSR sort gate). Item: QVQLQESGGGKVHAGGSLRLSCAASGSISYASGMVWYRQAPGKEREFVASIDPGAITNYADSVKGRFTNSHDNAKNTVYLQMNSLKPEDTAVYYCAARVSTTDSHGYWGQGTQVTVSS
# output high polyreactivity

* * *

ASSAY_DETAILS: yeast display, Sf9 membrane polyspecificity reagent, FACS + sequencing; frameworks hold sequencing errors
MEASURED_ATTRIBUTE: polyreactivity (PSR sort gate)

Examples from the recorded data:
PRIMARY_SEQUENCE	RECORDED_VALUE
QVQLVESGGGLVQAGGSHRLSSAASGSTFAKNAMGWYRQARGKESELVATISRGGSTNYADSVKGRFTISRDNAKNTVYLQMNSLKPEDTAVYYCNADRVRTAVYSYVYAYGIMNYSGQGTQVTVSS	low polyreactivity
QVQLVESGGALVQAGGSLRLSCAASGITFEVYAMGLYRQAPGKAREFVAAITGSGSRTYYADSVKGRFTISRDNAKNTVYLQMNSLKPEDTAVYYCAVKGFSTRSYREFDYWAQGTQVTVSS	low polyreactivity
QVQLVESGGGLVQAGGSLRLSCAASGGTFRSNAMGWYRQAPGKERELVAASTNYADSVKGRFTISRDNAKTTVYLQMNSLKPEDTAVYFCAARLASWPLTYDFQWYEYWGQGTQVTLSS	low polyreactivity
QVQLVESGGGLVQAGGSLRLSCAASGSIFATNAMGWYRQAPGKERELVASISSGGGSTYYADSVKGRFTISRDNAKNTVYLQMNSLKPEDTAVYYCARRIGHGSRPYWLETWRYPYDYWGQGTQVTVSS	low polyreactivity
QVQLVESAAGLVQAGGSLRVSCAASGSSFRLYAMGWYRPAPGKEREFVARIRWRGGSTNYADSVKGRFTISRDNAKNNVYLQMNSLKTEDTAVYYCAAKQGTVRAHTYVPWYDYWGQGTQVTVSS	high polyreactivity
QVQLVESGGGLVQAGGSLRLSCAASGSIFYSNAMGWYRQAAGKERELVAAISVSGVSTYYADSVKGRFTISRDTAKNTVYLQMNSLKPEDTAVYYCAADTGYRYDDYYWWGGEYDYWGQGTQVTVSS	low polyreactivity

Then this sequence:
# input Consider the sequence QVQLVESGGGLVQAGGSLRLSCAASGSTFGPNAMGWYRQAPGKERELVATISFRGGTTYYADSVKGRFTISRDHAKNTVYLQMNSLKPEDTAVYYCAVKVGYVRLLYHYYYWGQGTQGTVSS and give its measured polyreactivity (PSR sort gate).
# output high polyreactivity

* * *

ASSAY_DETAILS: yeast display, Sf9 membrane polyspecificity reagent, FACS + sequencing; frameworks hold sequencing errors
MEASURED_ATTRIBUTE: polyreactivity (PSR sort gate)

Please review the following examples before continuing.
PRIMARY_SEQUENCE	RECORDED_VALUE
QVQLVESGGCLVQAGGSLRLSCDASGSTFPYYAMGWYRQAPGKERELVAAITLSGSSTYYTDSVKGRFTISRDNAKNTVYLQMNSLKPEDTAVYYCATRRVQWGYRYSYWRQGTQVTVSS	high polyreactivity
QVQLVESGGGLVQAGGSLRLSCAASGSTFDPNAMGWYRQAPAKERELVAAISYTGGRTYYADSVKGRFTISRDNAKNTVYLQMNSLKPEDTAVYYCAVLVVGSTTQDEPYFSGVEHDYWGQGTQVTVSS	low polyreactivity
QVQLVESGGGLVQAGGSLRLSCAASGFIFHIYAMGWYRQAPGKERELVAVITSGGSTYYADSVKGRFTISRDNAKNTVYLQMNSLKPEDTAVYYCAARYRRSWLEYDYWGQGTQVTVSS	high polyreactivity
QVQLVESGGGLVQAVGSLRLSCAASGSTFWFNAMGWYRQAPGKERELVAAIPSRGGYTYYADSVKGRFTISRDNAKNTVYLQMNSLKPEDTAVYYCAADYRYSSRKVFHFDYWGQGTQVTVSS	low polyreactivity

Now, please, on to the next sequence.
# input Return reported polyreactivity (PSR sort gate); argument: QVKLVESGGGLVQAGGSLRLSCAASGSTFYKYTMGWNRQEPGKGRELVAAINWSGSTYYADSVKGRFTISRDNAKNTVYLQMNSLKTEDTAVYYCAATYIYRYDYWGQGTQVTVSS
# output high polyreactivity

* * *

ASSAY_DETAILS: yeast display, Sf9 membrane polyspecificity reagent, FACS + sequencing; frameworks hold sequencing errors
MEASURED_ATTRIBUTE: polyreactivity (PSR sort gate)

PRIMARY_SEQUENCE	RECORDED_VALUE
QVQLVESGGGLVQAGGRLRLRCAASGFIFSIYTMGWYRQAPGKERELVAAISWSGGSKYYADSVKGRFTISRDNAKNTVYLQMNSLKPEDTAVYYCNRVQFSPVYRFREYDYWGQGTQVTVSS	high polyreactivity
QVQLVESGVGIVQAGGSLRLSCAASGFTFDNYVMGWYRQAPGKERELVAAISTGSRTYYADSVKGRFTISRDNAKNTVYLQMNSLKPEDTAVYYCAASYVRRSWYSNDYWGQGTQVTVSS	high polyreactivity
QVQLVESGGGLVQAGGSLRLSCAASGRISQIYAMGWYRQAPGTERELVASISSSGSRTYYADSVKGRFTISRDNAKNTVYLQMNSLKPEDTAVYYCAARWWARSNRYDYWGQGTQVTVSS	high polyreactivity
QFQLVESGGGLVQAGGSLRLSSAASGSIFYTNAMGWYRQAPGKEREFVAGITRRGTSTNYADSVKGRFTISRDNAKNSVYLQMNSLKPEVTAVYYCNARYYLYWGQGTQVTVSS	low polyreactivity

Next item in the queue.
# input What polyreactivity (PSR sort gate) value was documented for this sequence, QVQLQESVGGPVLAGGSLRLSCGASGTIFVRLDMGWYRQARGKVREFVATIGSGSSTYYADSVKGSFTISRDNVKNTVYLKMNSLKPEDTAVYYCAVYAAEQSRHYYWDQGTQVTVSS ?
# output low polyreactivity
